// data source = PubChem BioAssay (NCI)

tested on: NCI-H460 lung; assay: NCI-60 one-dose screen, 48 h; conditions: 10 µM unless noted
About 83,000 compounds went through this panel and 20% of them were active in at least one assay; those are over-represented in the sample as a whole. The source made the active and inactive calls. How the source made its calls: active means growth percent below 10; inactive means the rest.
Classes used: active, inactive

molecular_string=COc1cc(/C=C/C(=O)c2ccc(NC(=O)CSc3nnc(-c4cc(OC)c(OC)c(OC)c4)n3-c3ccccc3)cc2)cc(OC)c1OC category=inactive
molecular_string=CCN1CCC[C@H]1c1cc(O)c2c(c1OC)C[C@H]1C[C@H]3[C@H](N)C(=O)C(C(N)=O)=C(O)[C@@]3(O)C(=O)C1=C2O category=active
molecular_string=O=C(/C(=C/c1ccc([N+](=O)[O-])cc1)SCc1ccc(Cl)cc1)c1ccc(F)cc1 category=inactive
molecular_string=C=CCn1c(SCC(=O)Nc2ccc(C(=O)/C=C/c3ccc(Cl)cc3)cc2)nnc1-c1cc(OC)c(OC)c(OC)c1 category=inactive

* * *

// reported growth per item
tested on: SK-MEL-2 melanoma; experiment: NCI-60 one-dose screen, 48 h (100 = growth as untreated, 0 = no growth, -100 = all killed); settings: 10 µM unless noted
About 83,000 compounds went through this panel and 20% of them were active in at least one assay; those are over-represented in the sample as a whole.
Measure: growth (%)

compound=Cn1nc(C(F)(F)F)c(-c2cc(C(F)(F)F)cc(C(F)(F)F)c2)c1-c1ccc(OCc2ccc(Cl)cc2)cc1O assayed_target="SK-MEL-2 melanoma" measured_result=-34
compound="O=c1c2ccccc2n(CC(O)CN2CCCC2)c2c(Br)cccc12 (stereo not given)" assayed_target="SK-MEL-2 melanoma" measured_result=112
compound=Cc1c(O)c(=O)ccn1-c1nc2ccccc2s1 assayed_target="SK-MEL-2 melanoma" measured_result=90.5
compound=COc1cc(-c2csc(NC(=O)Nc3cc(Cl)cc(Cl)c3)n2)cc(OC)c1OC assayed_target="SK-MEL-2 melanoma" measured_result=75.2
compound=C[C@H]1[C@H](C)CC[C@]2(C(=O)OCCCC[P+](c3ccccc3)(c3ccccc3)c3ccccc3)CC[C@]3(C)C(=CC[C@@H]4[C@@]5(C)CC[C@H](OC(=O)C(Cl)Cl)C(C)(C)[C@@H]5CC[C@]43C)[C@H]12 assayed_target="SK-MEL-2 melanoma" measured_result=-63.8

* * *

system: HOP-92 NSCLC; test: NCI-60 one-dose screen, 48 h; conditions: 10 µM unless noted
Compounds without any hit were thinned out: in the full panel of roughly 83,000, 20% have a hit. The source made the active and inactive calls. How the source made its calls: active means growth percent below 10; inactive means the rest.
Outcome codes: yes (1) for active, no (0) for inactive

molecule=O=C1CS/C(=N/c2nnc(-c3ccc(O)cc3)s2)N1 category="no (0)"
molecule="COc1cc(C(C)c2ccc3c(ccn3C)c2)cc(OC)c1OC (stereo not given)" category="no (0)"
molecule=Cc1cnc(SCc2ccc(Cl)cc2Cl)nc1Nc1ccc(Cl)c(Cl)c1 category="no (0)"
molecule=Cc1cnc(-c2ccc(-c3ccc(NC(=O)Nc4c(F)cc(F)cc4F)cc3F)c3c2C(=O)NC3)[nH]1 category="no (0)"
molecule=COc1ccc2nc(-c3ccc(OC)c(OC)c3)cc(-c3nnc(SCC(=O)Nc4ccc(C(C)=O)cc4)o3)c2c1 category="no (0)"
molecule="O=C1NN(c2ccccc2)C(c2ccc(Cl)cc2)N2CCC[C@H]12 (stereo not given in full)" category="no (0)"
molecule=O=C(/C(=C/c1ccc([N+](=O)[O-])cc1)SCc1ccccc1)c1ccc(Cl)cc1 category="no (0)"
molecule=O=C(Nc1nc(-c2ccccc2)cs1)c1cc(-c2ccc(Br)cc2)nc2ccccc12 category="yes (1)"
molecule=COc1ccc(NC(=O)c2ccc(Nc3ncnc4[nH]c(C)c(C)c34)cc2)cc1 category="no (0)"
molecule=N#CC(C#N)=C1NC(c2ccccc2)=C(c2ccccc2)C(c2ccccc2Cl)=C1C#N category="no (0)"
molecule=COC(=O)[C@]1(C)CCC[C@]2(C)[C@H]3C[C@H]4C(C(C)C)=C[C@]3(CC[C@H]21)[C@@H]1C(=O)N(CCC#N)C(=O)[C@@H]14 category="no (0)"
molecule=CCN1CCN(c2ccc(NC(=O)Nc3nc4ccc(-c5ccccc5OC)cc4s3)cc2)CC1 category="yes (1)"
molecule="COc1ccc(-c2nc(C#N)c(NCC(c3ccc(Cl)cc3)N3CCCCC3)o2)cc1 (stereo not given)" category="no (0)"
molecule=C=C1C(=O)O[C@H]2[C@H]1CC/C(COC(=O)c1cn(C)c3ccccc13)=C\CC[C@@]1(C)O[C@@H]21 category="yes (1)"
molecule=CCc1n(Cc2ccc3ccccc3c2)c2ccccc2[n+]1Cc1ccc2ccccc2c1 category="no (0)"
molecule="CCCCc1nc(Cl)c(C2CC(c3ccc(Cl)cc3)=NN2c2cc(Cl)cc(Cl)c2)[nH]1 (stereo not given)" category="no (0)"
molecule=COc1ccc(N(C)c2nc(Cl)nc3ccn(C)c23)cc1 category="yes (1)"
molecule="O=C1Nc2ccccc2C12C=C(c1ccccc1)Nc1c2c(-c2ccccc2)nn1-c1ccccc1 (stereo not given)" category="no (0)"
molecule=CCOC(=O)c1c(C)nc2c(c1N)/C(=C/c1ccc[nH]1)C(=O)N2Cc1ccc(C(F)(F)F)cc1 category="no (0)"
molecule=NCCN1CCNCC1 category="no (0)"
